# subject.of.test: WT1 ZF2-4 p.Arg463Ter (Homo sapiens (cDNA from A549 cells), UniProt P19544-2 334-372)
# Sequence (P19544 351-389): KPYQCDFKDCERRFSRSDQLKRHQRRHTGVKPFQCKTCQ
# assay.name: MST; 50 mM Na2HPO4.12H2O, 150 mM NaCl, 0.005% Tween; pH not stated; room temperature; 80 nM DNA; protein from 1-4 mM (highest) downward
# assay.setup: protein: recombinant; tags: no tag stated; label: 5' Cyanine5; single strand
pKd: −log10 of the molar value.
property.name: pKd

> print(dat)
                                     binder  property.name  test.value
1  GTGGAGGCGGCGGGGGCGGCAGCAACAG (ssDNA) [EGR1 DNA motif, Cy5 oligo]            pKd        3.49
